# experimentNotes: Concentration required to reduce HSV-1(KOS) induced cytopathogenicity by 50% in ESM(embryonic skin muscle) cell cultures.
# Type: functional
# experimentalContext: Homo sapiens
Each entry below carries its reported MIC.

IN: Please report the recorded MIC for Nc1ncnc2c1ncn2[C@H]1C[C@@H](O)[C@@H](O)C1 .
OUT: > 200 µg/mL

IN: Any idea what MIC was measured for O=c1[nH]c(=O)n([C@H]2C[C@H](O)[C@@H](CO)O2)cc1/C=C/Br ?
OUT: 0.07 µg/mL

IN: What value of MIC has been recorded for this entry: Nc1nc(O)c2ncn([C@H]3C[C@@H](O)[C@@H](O)C3)c2n1
OUT: 300 µg/mL

IN: Suppose we examine the molecule NC(=O)c1ncn([C@@H]2O[C@H](CO)[C@@H](O)[C@H]2O)n1 ; what MIC value has been reported?
OUT: > 400 µg/mL

IN: What does the record list as MIC for Nc1nc(N)c2ncn([C@H]3C[C@@H](O)[C@@H](O)C3)c2n1 ?
OUT: > 200 µg/mL

###

# experimentNotes: Concentration required to reduce vesicular stomatitis virus(VSV) induced cytopathogenicity by 50% in ESM(embryonic skin muscle) cell cultures.
# Assay type: functional
# experimentalContext: Homo sapiens
readoutLabel: MIC

IN: Please give the measured MIC for this compound: Nc1ncnc2c1ncn2[C@H]1C[C@@H](O)[C@@H](O)C1
OUT: > 200 µg/mL

IN: Requested read-out: MIC. Entry: Nc1nc(O)c2ncn([C@H]3C[C@@H](O)[C@@H](O)C3)c2n1
OUT: > 400 µg/mL

Continuing:
IN: Requested read-out: MIC. Entry: NC(=O)c1ncn([C@@H]2O[C@H](CO)[C@@H](O)[C@H]2O)n1
OUT: 150 µg/mL

IN: # lookup: MIC of O=c1[nH]c(=O)n([C@H]2C[C@H](O)[C@@H](CO)O2)cc1/C=C/Br
OUT: > 400 µg/mL

IN: Look at this compound and give its reported MIC. Nc1nc(N)c2ncn([C@H]3C[C@@H](O)[C@@H](O)C3)c2n1
OUT: > 200 µg/mL

###

Each record here notes measured MIC.
# experimentNotes: Concentration required to reduce HSV-1 thymidine kinase deficient (TK-)(VMW 1837) induced cytopathogenicity in by 50% ESM(embryonic skin muscle) cell cultures.
# Format: functional
# experimentalContext: Homo sapiens

IN: Which MIC reading was recorded for the compound NC(=O)c1ncn([C@@H]2O[C@H](CO)[C@@H](O)[C@H]2O)n1 ?
OUT: 40 µg/mL

IN: For Nc1nc(N)c2ncn([C@H]3C[C@@H](O)[C@@H](O)C3)c2n1 , what is its reported MIC?
OUT: 150 µg/mL

###

# System: HEL
# experimentNotes: Concentration required to reduce varicella zoster virus (VZV)YS-TK-PFU plaque formation by 50% in human embryonic lung (HEL) cell cultures.
# Type: functional
readoutLabel: MIC (µg/mL)
Give a bare numeral; the unit µg/mL is implied.

Please review the following examples before continuing.
IN: So what does the record say about MIC for Nc1nc(O)c2ncn([C@H]3C[C@@H](O)[C@@H](O)C3)c2n1 ?
OUT: 91

IN: # query: MIC of entry O=c1[nH]c(=O)n([C@H]2C[C@H](O)[C@@H](CO)O2)cc1/C=C/Br
OUT: 0.0007

IN: Fill in: MIC of Nc1nc(N)c2ncn([C@H]3C[C@@H](O)[C@@H](O)C3)c2n1 is ___
OUT: 200

Please turn your attention to the following entry.
IN: # query: MIC of entry Nc1ncnc2c1ncn2[C@H]1C[C@@H](O)[C@@H](O)C1
OUT: 25

###

# experimentNotes: Concentration required to reduce HSV-1 thymidine kinase deficient (TK-)(VMW 1837) induced cytopathogenicity in by 50% ESM(embryonic skin muscle) cell cultures.
# Assay type: functional
# experimentalContext: Homo sapiens
readoutLabel: MIC (µg/mL)
Quick note: give the figure in µg/mL, leave out the unit.

IN: // lookup MIC for Nc1nc(O)c2ncn([C@H]3C[C@@H](O)[C@@H](O)C3)c2n1
OUT: 150

---
IN: Entry Nc1ncnc2c1ncn2[C@H]1C[C@@H](O)[C@@H](O)C1 : reported MIC = ?
OUT: 100

IN: Reported MIC for O=c1[nH]c(=O)n([C@H]2C[C@H](O)[C@@H](CO)O2)cc1/C=C/Br : what is it?
OUT: 10
